Below, each of the binders is paired with its reported absorbance at 490 nm value.
ASSAY TARGET: M4
MEASUREMENT PROTOCOL: ELISA on coated antigen, column M4
Please state the value as a number alone, without comment.

PDL1-31E6 (antibody, V domains shown, Only FR/CDR pieces are tied to the clone) VH: QVQLVQSGAEVKKPGSSVKVSCKASGGTFSSYAISWVRQAPGQGLEWMGGIIPIFGTANYAQKFQGRVTITADESTSTAYMELSSLRSEDTAVYYCARGGRSFGAFDSWGQGALVTVSS VL: DIQMTQSPATLSLSPGERATLSCTASQSISSYLAWYQQKPGQAPRLLIYDSSNRATGIPARFSGSGSGTAFTLTISSLEPEDFAVYFCQQRGQWPLTFGGGTKVDIK :: 2.4

Query binder follows.
Query string: Return reported absorbance at 490 nm; argument: PDL1-23E10 (scFv, V domains shown) VH: QMQLVESGAEVKKPGSSVKVSCKVSGENFRSHAISWVRQAPGQGLEWMGRIIPIVGLADYPQKFQGRVTISADESTGTAYMDLSSLRSEDTAVYYCVTGRPPWHWGQGILITVSS VL: QLVLTQPPSVSGAPGQRVTISCTGSSSNIGAGYDVHWYQQLPGTAPKLLIYSNRNRPSGVPDRFSGSKSGTSASLAITGLQAEDEADYYCQSYDSSLSGPNYVFGTGTKVTVL
Result string: 0.5
